pKd: −log10 of the molar value.
Measured pKd (Galectin-1 (Homo sapiens, UniProt P09382))
parameter: pKd

                               smiles_input                           measured_target  qual  readout_value
0  O=C(NS(=O)(=O)c1ccc2ncsc2c1)c1cc2cc(Oc3ccc(Cl)c(Cl)c3)ccc2[nH]1  Galectin-1 (Homo sapiens, UniProt P09382)     =           3.97
1  O=C(NS(=O)(=O)c1ccc(Cl)cc1Cl)c1cc2cc(Oc3ccc(Cl)c(Cl)c3)ccc2[nH]1  Galectin-1 (Homo sapiens, UniProt P09382)     =           4.36
2  CCOC(=O)c1ccc(S(=O)(=O)NC(=O)c2cc3cc(Oc4ccc(Cl)c(Cl)c4)ccc3n2C)cc1  Galectin-1 (Homo sapiens, UniProt P09382)     <           3.30

Measured values drawn from ChEMBL document CHEMBL5390211 for this set.
